// hemolysis at 1 h, 50 µM lookup, one value per entry
Assay: Hemolytic activity against human RBC at 50 uM after 1 hr by Drabkin's assay relative to control
Assay type: ADME, cell-based, Erythrocyte
Conditions: human red blood cells (erythrocytes), read-out: Activity
property label: hemolysis at 1 h, 50 µM (%)

{"columns": ["test smiles", "assay result"],
 "data": [
  ["O=CN1CCCN1C(=O)N1CCC[C@H]1C(=O)N1CCCN1C(=O)N1CCC[C@H]1C(=O)N1CCCN1C(=O)N1CCC[C@H]1C(=O)N1CCCN1C(=O)N1CCC[C@H]1C(=O)N1CCCN1C(=O)N1CCC[C@H]1C(=O)N1CCCN1C(=O)N1CCC[C@H]1C(=O)NCCO", -0.49],
  ["CC(C)(C)OC(=O)N1CCC[C@H]1C(=O)N1CCCN1C(=O)N1CCC[C@H]1C(=O)N1CCCN1C(=O)N1CCC[C@H]1C(=O)N1CCCN1C(=O)N1CCC[C@H]1C(=O)N1CCCN1", 0.061],
  ["Cl.O=C(OCc1ccccc1)N1CCCN1C(=O)[C@@H]1CCCN1C(=O)N1CCCN1C(=O)[C@@H]1CCCN1C(=O)N1CCCN1C(=O)[C@@H]1CCCN1C(=O)N1CCCN1C(=O)[C@@H]1CCCN1", -0.013],
  ["CC(C)(C)OC(=O)[C@@H]1CCCN1C(=O)N1CCCN1C(=O)[C@@H]1CCCN1C(=O)N1CCCN1C(=O)[C@@H]1CCCN1C(=O)N1CCCN1C(=O)[C@@H]1CCCN1C(=O)N1CCCN1C(=O)[C@@H]1CCCN1C(=O)N1CCCN1C(=O)[C@@H]1CCCN1C(=O)N1CCCN1C(=O)[C@@H]1CCCN1C(=O)N1CCCN1C(=O)[C@@H]1CCCN1C(=O)N1CCCN1.Cl", 0],
  ["O=C(O)[C@@H]1CCCN1C(=O)N1CCCN1C(=O)[C@@H]1CCCN1C(=O)N1CCCN1C(=O)[C@@H]1CCCN1C(=O)N1CCCN1C(=O)[C@@H]1CCCN1C(=O)N1CCCN1C(=O)OCc1ccccc1", 0.09]
]}

Source: ChEMBL document CHEMBL4196059
